molecular target: T1, recombinant human CD3 epsilon/delta heterodimer (human, UniProt P07766 23-126; P04234 22-105); test: Octet BLI, mAb on FAB2G sensor, hCD3 E/D 200-50 nM; R^2 0.99
T1 construct: Recombinant protein in solution (200-50 nM) in the Octet assay; also called hCD3 E/D; human CD3E/D
T1 sequence (P07766 23-126, stated change not applied, chain 1 of 2): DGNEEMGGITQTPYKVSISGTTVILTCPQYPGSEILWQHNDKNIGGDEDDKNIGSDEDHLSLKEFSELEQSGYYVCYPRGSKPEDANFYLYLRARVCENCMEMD
T1 sequence (P04234 22-105, stated change not applied, chain 2 of 2): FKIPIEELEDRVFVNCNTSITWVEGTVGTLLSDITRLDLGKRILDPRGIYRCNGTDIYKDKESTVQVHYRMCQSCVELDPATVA
Reported Kd by item:

binder: ABL-CD3-10 (antibody, V domains shown, Chimeric hybridoma mAb: human V, CH1, upper hinge; mouse middle hinge, CH2, CH3) VH: QVQLQQSGPGLVKPSQTLSLTCAISGDSVSCNSVAWNWIRQSPSRGLEWLGRTYYRSKWHNEYAVSVKSRINIKPDTSKNQVSLQLKSVTPEDTAVYYCARERKWELFLDYWGQGTLVTVSS VL: NFMLTQPHSVSESPGKTVTISCTRSSGSIASNYVQWYQQRPGSSPTTMIYEDNQRPSGVPDRFSGSIDSSSNSASLTISGLKTEDEADYYCQSLDSSSVVFGGGTKLTVL
Kd: 2.47 nM
//
binder: ABL-CD3-55 (antibody, V domains shown, Chimeric hybridoma mAb: human V, CH1, upper hinge; mouse middle hinge, CH2, CH3) VH: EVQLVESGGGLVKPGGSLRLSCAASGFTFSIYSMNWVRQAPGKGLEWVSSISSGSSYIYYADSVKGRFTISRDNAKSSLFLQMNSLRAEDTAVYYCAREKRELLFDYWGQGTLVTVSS VL: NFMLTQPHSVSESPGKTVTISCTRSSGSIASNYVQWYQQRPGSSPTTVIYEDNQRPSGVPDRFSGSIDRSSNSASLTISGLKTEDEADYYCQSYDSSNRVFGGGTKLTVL
Kd: 183 nM
//
binder: ABL-CD3-12 (antibody, V domains shown, Chimeric hybridoma mAb: human V, CH1, upper hinge; mouse middle hinge, CH2, CH3) VH: EVQLVESGGGLVKPGGSLRLSCAASGFTFSSYTMNWVRQAPGKGLEWVSSISRSSSYKYYADSVKGRFTISRDNAKNSLYLQMNSLRAEDTAVYYCAREPPTLGMDYWGQGTLVIVSS VL: NFMLTQPHSVSESPGKTVTISCTRSNGSITSNYVQWYQQRPGSSPTTVIYEDNQRPSGVPDRFSGSIDSSSNSASLTISGLKTEDEADYYCQSFDNSNRVFGEKTKLTVL
Kd: 10.6 nM
